Catalogue of compounds with associated log10 IC50
# targetUnderTest: motilin receptors located on the colon of mature rabbits (Oryctolagus cuniculus, UniProt G1T803)
# Construct: The colon from mature New Zealand rabbits was removed, dissected free from the mucosa and serosa layers, and diced into small pieces; from tissue; host or cells: colon smooth muscle of mature New Zealand rabbits, crude membrane homogenate
# Sequence (G1T803 1-400): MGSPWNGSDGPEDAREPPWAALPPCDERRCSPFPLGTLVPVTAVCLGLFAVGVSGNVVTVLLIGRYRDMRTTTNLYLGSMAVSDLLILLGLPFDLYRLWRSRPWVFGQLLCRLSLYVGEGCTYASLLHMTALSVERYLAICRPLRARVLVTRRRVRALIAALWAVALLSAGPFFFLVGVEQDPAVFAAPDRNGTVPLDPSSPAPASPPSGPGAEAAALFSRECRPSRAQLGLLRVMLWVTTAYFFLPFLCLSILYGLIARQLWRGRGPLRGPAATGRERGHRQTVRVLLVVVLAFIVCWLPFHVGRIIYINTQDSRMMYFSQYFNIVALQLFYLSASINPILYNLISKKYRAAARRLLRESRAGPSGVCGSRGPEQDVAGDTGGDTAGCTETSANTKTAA
# methodNotes: competition with radiolabeled (125I) porcine motilin for the motilin receptors of rabbit colon
# Format: binding
# protocolConditions: rabbit colon, 125I motilin; read-out: IC50
log10 IC50, nM

O=C(c1ccc(F)cc1)N(CC1=CC(Cc2ccccc2)(NC(=O)C(Cl)(Cl)Cl)CC1)c1cccc(OCCN2CCOCC2)c1 (centres unmarked); 1.72
COc1ccc(C(=O)N(CC2=CC(Cc3ccccc3)(NC(=O)C(Cl)(Cl)Cl)CC2)c2cccc(OCCN3CCOCC3)c2)cc1 (centres unmarked); 1.95
COc1ccc(CC2(NC(=O)C(Cl)(Cl)Cl)C=C(CN(C(=O)c3ccc(F)cc3)c3cccc(OCCN4CCOCC4)c3)CC2)cc1 (centres unmarked); 1.75
N#Cc1ccc(C(=O)N(CC2=CC(Cc3ccccc3)(NC(=O)C(Cl)(Cl)Cl)CC2)c2cccc(OCCN3CCOCC3)c2)cc1 (centres unmarked); 1.99
O=C(Nc1ccccc1)N(CC1=CC(Cc2ccccc2)(NC(=O)C(Cl)(Cl)Cl)CC1)c1cccc(OCCN2CCOCC2)c1 (centres unmarked) [Compound 8]; 1.30

The compound identified as O=C(c1ccc(Cl)c(Cl)c1)N(CC1=CC(Cc2ccccc2)(NC(=O)C(Cl)(Cl)Cl)CC1)c1cccc(OCCN2CCOCC2)c1 (centres unmarked) registered its log10 IC50 at 2.41

The compound identified as O=C(c1c(F)c(F)c(F)c(F)c1F)N(CC1=CC(Cc2ccccc2)(NC(=O)C(Cl)(Cl)Cl)CC1)c1cccc(OCCN2CCOCC2)c1 (centres unmarked) registered its log10 IC50 at 3.00

The compound identified as COc1ccc(CC2(NC(=O)C(Cl)(Cl)Cl)C=C(CN(C(=O)c3ccccc3)c3cccc(OCCN4CCOCC4)c3)CC2)cc1 (centres unmarked) registered its log10 IC50 at 1.75
